This listing pairs variants with measured one-hybrid fitness for binding parS DNA.
B1: Caulobacter ParB omega fusion; a variant is named by its letters at X, in order, B8GW30 (parent)
chain: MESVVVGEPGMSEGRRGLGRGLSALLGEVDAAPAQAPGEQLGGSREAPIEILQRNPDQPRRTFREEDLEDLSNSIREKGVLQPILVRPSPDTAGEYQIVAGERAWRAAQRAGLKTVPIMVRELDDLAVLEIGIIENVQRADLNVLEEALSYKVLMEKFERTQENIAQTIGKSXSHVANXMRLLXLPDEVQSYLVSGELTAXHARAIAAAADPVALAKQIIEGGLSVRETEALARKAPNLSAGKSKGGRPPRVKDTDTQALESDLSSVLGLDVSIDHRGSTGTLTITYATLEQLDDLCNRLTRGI

- Variants of: B1
- experiment: one-hybrid fitness for binding parS DNA (scaled: cognate 1, non-cognate 0); higher = stronger binding
- condition-label: with parS DNA site
In all, about 81,000 sequences were measured (“one-hybrid fitness for binding parS DNA”: median about -0.17, highest 2% from about 0.51 on). Many of the other results were omitted from the sample, so the highest values are more common in it than they were.
property-label: one-hybrid fitness for binding parS DNA

>>> value("RGKG")
0.896
>>> value("RGQG")
0.727
>>> value("RGVG")
0.502
>>> value("RGLH")
"≤ 0.2"
>>> value("RYRN")
0.375
>>> value("RYHN")
0.421
>>> value("RYSH")
"≤ 0.2"
>>> value("RGKP")
"≤ 0.2"
>>> value("RGSH")
"≤ 0.2"
>>> value("NSVS")
"≤ 0.2"
>>> value("RYHS")
0.921
>>> value("TNRP")
"≤ 0.2"
>>> value("RLVH")
0.223
>>> value("RYGN")
0.408
>>> value("RYHD")
"≤ 0.2"
>>> value("IKAG")
"≤ 0.2"
>>> value("TGPM")
"≤ 0.2"
>>> value("RYRS")
0.824
>>> value("RLKS")
0.851
>>> value("TRNP")
"≤ 0.2"
>>> value("RLVN")
0.4
>>> value("SKVG")
"≤ 0.2"
